# target under test: LRRK2 G2019S mutant kinase (Homo sapiens, UniProt Q5S007, G2019S)
# Construct: GST
# Sequence (Q5S007 whole entry G2019S): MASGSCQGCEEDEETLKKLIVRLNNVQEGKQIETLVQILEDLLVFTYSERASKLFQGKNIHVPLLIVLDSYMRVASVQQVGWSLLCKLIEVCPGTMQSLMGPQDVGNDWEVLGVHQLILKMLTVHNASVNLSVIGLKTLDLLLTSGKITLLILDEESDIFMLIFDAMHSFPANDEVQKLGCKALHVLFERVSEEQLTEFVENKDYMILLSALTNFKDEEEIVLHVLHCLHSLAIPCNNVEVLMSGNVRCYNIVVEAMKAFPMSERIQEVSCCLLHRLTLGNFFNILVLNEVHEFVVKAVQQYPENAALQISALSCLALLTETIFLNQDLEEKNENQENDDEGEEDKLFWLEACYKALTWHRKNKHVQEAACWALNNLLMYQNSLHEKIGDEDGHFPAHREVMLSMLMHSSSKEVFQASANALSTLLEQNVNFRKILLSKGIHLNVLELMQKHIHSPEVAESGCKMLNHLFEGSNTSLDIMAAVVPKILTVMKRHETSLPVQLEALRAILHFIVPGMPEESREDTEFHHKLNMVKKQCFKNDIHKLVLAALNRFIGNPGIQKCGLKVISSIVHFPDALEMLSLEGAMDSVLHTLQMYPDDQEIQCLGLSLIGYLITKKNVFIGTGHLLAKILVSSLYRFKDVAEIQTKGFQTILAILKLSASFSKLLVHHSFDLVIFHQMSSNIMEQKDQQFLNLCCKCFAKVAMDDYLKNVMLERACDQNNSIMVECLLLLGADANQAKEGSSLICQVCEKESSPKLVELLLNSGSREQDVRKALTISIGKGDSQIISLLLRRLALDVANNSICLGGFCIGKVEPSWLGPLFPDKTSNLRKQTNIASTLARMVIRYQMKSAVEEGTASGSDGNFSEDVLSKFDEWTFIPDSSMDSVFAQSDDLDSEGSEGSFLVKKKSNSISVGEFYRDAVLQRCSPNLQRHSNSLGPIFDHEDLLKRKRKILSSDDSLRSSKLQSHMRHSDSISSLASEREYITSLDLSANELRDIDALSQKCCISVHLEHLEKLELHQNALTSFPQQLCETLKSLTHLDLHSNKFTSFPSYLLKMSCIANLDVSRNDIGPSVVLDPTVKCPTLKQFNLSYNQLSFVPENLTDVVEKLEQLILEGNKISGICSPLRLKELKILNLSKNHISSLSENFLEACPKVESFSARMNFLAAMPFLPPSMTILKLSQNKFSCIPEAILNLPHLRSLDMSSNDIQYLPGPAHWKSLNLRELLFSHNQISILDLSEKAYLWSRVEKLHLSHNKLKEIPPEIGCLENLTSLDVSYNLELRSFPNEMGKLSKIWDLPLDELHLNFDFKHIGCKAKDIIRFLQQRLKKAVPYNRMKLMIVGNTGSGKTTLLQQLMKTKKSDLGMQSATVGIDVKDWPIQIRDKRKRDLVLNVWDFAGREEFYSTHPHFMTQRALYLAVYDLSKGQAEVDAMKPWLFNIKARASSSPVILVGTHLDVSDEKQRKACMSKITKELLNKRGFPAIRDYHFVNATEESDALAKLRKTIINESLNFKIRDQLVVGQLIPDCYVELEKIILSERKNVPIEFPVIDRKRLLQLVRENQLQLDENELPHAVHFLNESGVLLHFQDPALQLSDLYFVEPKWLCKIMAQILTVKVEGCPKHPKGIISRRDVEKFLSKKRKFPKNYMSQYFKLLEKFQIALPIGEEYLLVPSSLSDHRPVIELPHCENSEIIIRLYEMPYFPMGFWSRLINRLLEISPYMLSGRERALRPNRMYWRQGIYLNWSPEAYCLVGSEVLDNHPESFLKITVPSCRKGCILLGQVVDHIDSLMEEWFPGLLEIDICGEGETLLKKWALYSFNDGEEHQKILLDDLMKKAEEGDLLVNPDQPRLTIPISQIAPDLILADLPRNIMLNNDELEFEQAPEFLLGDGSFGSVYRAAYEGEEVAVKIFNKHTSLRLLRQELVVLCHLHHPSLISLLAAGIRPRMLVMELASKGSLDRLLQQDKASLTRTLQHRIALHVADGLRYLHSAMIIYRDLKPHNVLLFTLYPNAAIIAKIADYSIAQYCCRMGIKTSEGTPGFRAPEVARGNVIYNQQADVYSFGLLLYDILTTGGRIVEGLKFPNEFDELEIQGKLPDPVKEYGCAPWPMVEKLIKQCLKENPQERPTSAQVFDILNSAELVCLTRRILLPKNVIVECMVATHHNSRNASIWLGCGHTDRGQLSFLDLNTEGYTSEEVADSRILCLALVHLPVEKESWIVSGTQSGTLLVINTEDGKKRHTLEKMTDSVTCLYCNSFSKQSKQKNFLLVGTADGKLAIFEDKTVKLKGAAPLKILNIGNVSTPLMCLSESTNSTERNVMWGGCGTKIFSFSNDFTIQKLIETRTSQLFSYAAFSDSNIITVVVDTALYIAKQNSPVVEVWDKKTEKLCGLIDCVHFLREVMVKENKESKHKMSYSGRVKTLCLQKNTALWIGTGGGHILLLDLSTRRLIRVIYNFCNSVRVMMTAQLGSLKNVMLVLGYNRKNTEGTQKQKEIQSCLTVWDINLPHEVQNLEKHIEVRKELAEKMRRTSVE
# procedure summary: LRRK2 G2019S LanthaScreen TR-FRET kinase assay
# measurement setup: LRRK2 G2019S GST-tagged protein, 100 μM ATP, LRRKtide substrate; read-out: IC50 (potency)
Entries and their pIC50
In plain terms, pIC50 is the concentration in mol/L turned into minus its base-10 logarithm.

Check out these entries, answers already filled in.
{"compound": "CSc1sc(-c2cc(C3CC3)[nH]n2)c2c1C(=O)CC(C)(C)C2 [Example 89]", "val": 6.33}
{"compound": "CCc1cc(-c2sc(SC)c3c2CC(C)(C)CC3=O)n[nH]1 [Example 90]", "val": 6.35}
{"compound": "CC1(C)CC(=O)c2c(NCc3ccccn3)sc(-c3cc[nH]n3)c2C1 [Example 48]", "val": 6.21}
{"compound": "CC1(C)CC(=O)c2c(NCc3ccco3)sc(-c3cc[nH]n3)c2C1 [Example 44]", "val": 6.42}
{"compound": "O=C1CCCc2c(-c3cc[nH]n3)sc(NC3CCCC3)c21 [Example 4]", "val": 6.80}
{"compound": "CC1(C)CC(=O)c2c(SCCCCCCN)sc(-c3cc[nH]n3)c2C1 [Example 24]", "val": 7.15}
{"compound": "CNC(=O)n1ccc(-c2sc(SC3CCCC3)c3c2CC(C)(C)CC3=O)n1 [Example 72]", "val": 5.77}
{"compound": "CCSc1sc(-c2cc[nH]n2)c2c1C(=O)CC(C)(C)C2 [Example 8]", "val": 6.74}
{"compound": "CCCc1sc(-c2cc[nH]n2)c2c1C(=O)CC(C)(C)C2 [Example 56]", "val": 5.66}
{"compound": "CSc1sc(-c2cc[nH]n2)c2c1C(=O)CC(C)(C)C2 [Example 5]", "val": 6.64}

Query: Entry CC1(C)CC(=O)c2c(SCC[Si](C)(C)C)sc(-c3cc[nH]n3)c2C1 [Example 31] has what pIC50?
Response: 5.72

Query: // same read-out, input: CSc1sc(-c2ccn(C(=O)OC(C)(C)C)n2)c2c1C(=O)CCC2 [Example 85]
Response: 5.96

====

# target under test: LRRK2 G2019S mutant kinase (Homo sapiens, UniProt Q5S007, G2019S)
# Construct: GST
# procedure summary: LRRK2 G2019S LanthaScreen TR-FRET kinase assay
# measurement setup: LRRK2 G2019S GST-tagged protein, 100 μM ATP, LRRKtide substrate; read-out: IC50 (potency)
readout: IC50 (nM)
Write the answer as a number in nM, unit excluded.

# count of solved cases: 3
{"molecule": "CC1(C)CC(=O)c2c(SC3CCCC3)sc(-c3cc[nH]n3)c2C1 [Example 7]", "target under test": "LRRK2 G2019S mutant kinase (Homo sapiens, UniProt Q5S007, G2019S)", "IC50 / nM": 93}
{"molecule": "CN1CCN(CCCNc2sc(-c3cc[nH]n3)c3c2C(=O)CC(C)(C)C3)CC1 [Example 42]", "target under test": "LRRK2 G2019S mutant kinase (Homo sapiens, UniProt Q5S007, G2019S)", "IC50 / nM": 420}
{"molecule": "CC1(C)CC(=O)c2c(SC3CCCC3)sc(-c3ccn(C(=O)Nc4cccc(C#N)c4)n3)c2C1 [Example 68]", "target under test": "LRRK2 G2019S mutant kinase (Homo sapiens, UniProt Q5S007, G2019S)", "IC50 / nM": 130}

Here's the next entry for you.
Query: What measured IC50 is associated with CC1(C)CC(=O)c2c(SCc3ccccc3)sc(-c3cc[nH]n3)c2C1 [Example 14] on LRRK2 G2019S mutant kinase (Homo sapiens, UniProt Q5S007, G2019S)?
Response: 860

====

# target under test: LRRK2 G2019S mutant kinase (Homo sapiens, UniProt Q5S007, G2019S)
# Construct: GST
# procedure summary: LRRK2 G2019S LanthaScreen TR-FRET kinase assay
# measurement setup: LRRK2 G2019S GST-tagged protein, 100 μM ATP, LRRKtide substrate; read-out: IC50 (potency)
Label MET when IC50 < 200 nM; otherwise NOT MET.

Solved entries (count: 5):
{"compound": "CC(C)NC(=O)n1ccc(-c2sc(SC3CCCC3)c3c2CC(C)(C)CC3=O)n1", "label class": "NOT MET"}
{"compound": "CC1(C)CC(=O)c2c(SC3CCCC3)sc(-c3ccn(C(=O)NCc4ccccc4)n3)c2C1", "label class": "NOT MET"}
{"compound": "CC1(C)CC(=O)c2c(SCCc3ccccc3)sc(-c3cc[nH]n3)c2C1", "label class": "NOT MET"}
{"compound": "COc1ccccc1NC(=O)n1ccc(-c2sc(SC3CCCC3)c3c2CC(C)(C)CC3=O)n1", "label class": "MET"}
{"compound": "CC1(C)CC(=O)c2c(SC3CCCC3)sc(-c3ccn(C(=O)C4CCCCC4)n3)c2C1", "label class": "NOT MET"}

Query: Threshold test, IC50 < 200 nM: CC1(C)CC(=O)c2c(SCC(O)CO)sc(-c3cc[nH]n3)c2C1 (centres unmarked)
Response: NOT MET

Query: Same for CC(C)Nc1sc(-c2cc[nH]n2)c2c1C(=O)CC(C)(C)C2
Response: MET

====

# target under test: LRRK2 G2019S mutant kinase (Homo sapiens, UniProt Q5S007, G2019S)
# Construct: GST
# procedure summary: LRRK2 G2019S LanthaScreen TR-FRET kinase assay
# measurement setup: LRRK2 G2019S GST-tagged protein, 100 μM ATP, LRRKtide substrate; read-out: IC50 (potency)
readout: log10 IC50 (log10 of the value in nM)
In our notation, the value equals log10 of IC50 in nM.

Some solved entries appear below for comparison.
{"molecule": "CCCCCCSc1sc(-c2cc[nH]n2)c2c1C(=O)CC(C)(C)C2", "val": 3.11}
{"molecule": "CS(=O)(=O)c1sc(-c2cc[nH]n2)c2c1C(=O)CCC2", "val": 3.54}
{"molecule": "CCCC1CCc2c(-c3cc[nH]n3)sc(SC)c2C1=O (stereo not drawn)", "val": 2.49}
{"molecule": "CC1(C)CC(=O)c2c(SC3CCCC3)sc(-c3ccn(C(=O)c4ccc(F)cc4)n3)c2C1", "val": 2.99}
{"molecule": "CC(=O)NCCCCCCSc1sc(-c2cc[nH]n2)c2c1C(=O)CC(C)(C)C2", "val": 2.26}

Query: If you can, please state the reported log10 IC50 value of O=C1CCCc2c(-c3cc[nH]n3)sc(SC3CCCC3)c21 .
Response: 2.63

Query: And for CC(C)C(=O)n1ccc(-c2sc(SC3CCCC3)c3c2CC(C)(C)CC3=O)n1 ?
Response: 3.18

Query: Next molecule: CC1(C)CC(=O)c2c(NC3CCCCC3)sc(-c3cc[nH]n3)c2C1
Response: 2.38

Query: Now consider CCC(C)NC(=O)n1ccc(-c2sc(SC3CCCC3)c3c2CC(C)(C)CC3=O)n1 (stereo not drawn) .
Response: 3.23

====

# target under test: LRRK2 G2019S mutant kinase (Homo sapiens, UniProt Q5S007, G2019S)
# Construct: GST
# procedure summary: LRRK2 G2019S LanthaScreen TR-FRET kinase assay
# measurement setup: LRRK2 G2019S GST-tagged protein, 100 μM ATP, LRRKtide substrate; read-out: IC50 (potency)
Each record here notes measured IC50.
Form entry: value (nM) — number only.

Query: Return reported IC50; argument: CCCCSc1sc(-c2cc[nH]n2)c2c1C(=O)CC(C)(C)C2 [Example 27]
Response: 140

Query: // query: CSc1cccc(NC(=O)n2ccc(-c3sc(SC4CCCC4)c4c3CC(C)(C)CC4=O)n2)c1 [Example 61]
Response: 110

Query: What about this molecule? CC1(C)CC(=O)c2c(SCCCCCCO)sc(-c3cc[nH]n3)c2C1 [Example 19]
Response: 60

Query: Would you kindly repeat that for CC1(C)CC(=O)c2c(SC3CCCC3)sc(-c3ccn(C(=O)Nc4ccc(Cl)cc4)n3)c2C1 [Example 62] ?
Response: 86

Query: Do the same for CC1(C)CC(=O)c2c(NCCN3CCOCC3)sc(-c3cc[nH]n3)c2C1 [Example 45] please
Response: 250

====

# target under test: LRRK2 G2019S mutant kinase (Homo sapiens, UniProt Q5S007, G2019S)
# Construct: GST
# procedure summary: LRRK2 G2019S LanthaScreen TR-FRET kinase assay
# measurement setup: LRRK2 G2019S GST-tagged protein, 100 μM ATP, LRRKtide substrate; read-out: IC50 (potency)
readout: log10(IC50) (log10 of the value in nM)
Recorded IC50 (log10, nM)

// solved cases for log10(IC50) follow
{"compound": "COc1ccc(C(=O)n2ccc(-c3sc(SC4CCCC4)c4c3CC(C)(C)CC4=O)n2)cc1 [Example 82]", "val": 3.53}
{"compound": "CCCC(=O)n1ccc(-c2sc(SC3CCCC3)c3c2CC(C)(C)CC3=O)n1 [Example 76]", "val": 2.99}
{"compound": "CC1(C)CC(=O)c2c(NCCc3ccccn3)sc(-c3cc[nH]n3)c2C1 [Example 47]", "val": 2.46}
{"compound": "COCCSc1sc(-c2cc[nH]n2)c2c1C(=O)CC(C)(C)C2 [Example 12]", "val": 2.46}
{"compound": "Cc1nnc(Sc2sc(-c3cc[nH]n3)c3c2C(=O)CC(C)(C)C3)s1 [Example 32]", "val": 3.60}
{"compound": "CC1(C)CC(=O)c2c(SCCCCl)sc(-c3cc[nH]n3)c2C1 [Example 33]", "val": 2.08}

Query: Data request, read-out log10(IC50), for CNc1sc(-c2cc[nH]n2)c2c1C(=O)CC(C)(C)C2 [Example 36]
Response: 2.88

Query: Would you kindly repeat that for CC1(C)CC(=O)c2c(NCCCCCCO)sc(-c3cc[nH]n3)c2C1 [Example 50] ?
Response: 2.26

Query: Ok, now CC1(C)CC(=O)c2c(NC3CCCC3)sc(-c3ccn(C(=O)Nc4ccc(C#N)cc4)n3)c2C1 [Example 74]
Response: 2.28
